tested-on: TLR1/TLR2 (Mus musculus, UniProt Q9EPQ1+Q9QUN7)
Sequence (Q9EPQ1 26-795): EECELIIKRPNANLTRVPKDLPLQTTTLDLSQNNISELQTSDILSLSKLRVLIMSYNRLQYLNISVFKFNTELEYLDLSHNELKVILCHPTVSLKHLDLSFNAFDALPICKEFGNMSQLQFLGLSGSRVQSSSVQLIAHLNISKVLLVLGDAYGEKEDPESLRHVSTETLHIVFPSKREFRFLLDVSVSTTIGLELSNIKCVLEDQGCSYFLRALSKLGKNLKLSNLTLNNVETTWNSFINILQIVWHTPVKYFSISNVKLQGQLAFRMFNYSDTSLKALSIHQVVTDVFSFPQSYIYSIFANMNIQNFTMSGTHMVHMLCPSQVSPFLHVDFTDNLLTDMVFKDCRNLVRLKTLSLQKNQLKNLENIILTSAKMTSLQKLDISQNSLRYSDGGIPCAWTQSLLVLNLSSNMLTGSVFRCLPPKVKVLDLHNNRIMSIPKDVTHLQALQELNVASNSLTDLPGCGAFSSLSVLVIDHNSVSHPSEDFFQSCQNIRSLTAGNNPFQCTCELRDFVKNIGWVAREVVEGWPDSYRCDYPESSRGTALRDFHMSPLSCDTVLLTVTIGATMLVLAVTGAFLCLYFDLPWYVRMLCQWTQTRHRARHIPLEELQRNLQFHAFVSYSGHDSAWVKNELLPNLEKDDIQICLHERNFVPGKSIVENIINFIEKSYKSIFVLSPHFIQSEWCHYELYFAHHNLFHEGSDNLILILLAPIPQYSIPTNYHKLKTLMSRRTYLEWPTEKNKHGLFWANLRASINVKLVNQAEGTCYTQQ
Sequence (Q9QUN7 25-784): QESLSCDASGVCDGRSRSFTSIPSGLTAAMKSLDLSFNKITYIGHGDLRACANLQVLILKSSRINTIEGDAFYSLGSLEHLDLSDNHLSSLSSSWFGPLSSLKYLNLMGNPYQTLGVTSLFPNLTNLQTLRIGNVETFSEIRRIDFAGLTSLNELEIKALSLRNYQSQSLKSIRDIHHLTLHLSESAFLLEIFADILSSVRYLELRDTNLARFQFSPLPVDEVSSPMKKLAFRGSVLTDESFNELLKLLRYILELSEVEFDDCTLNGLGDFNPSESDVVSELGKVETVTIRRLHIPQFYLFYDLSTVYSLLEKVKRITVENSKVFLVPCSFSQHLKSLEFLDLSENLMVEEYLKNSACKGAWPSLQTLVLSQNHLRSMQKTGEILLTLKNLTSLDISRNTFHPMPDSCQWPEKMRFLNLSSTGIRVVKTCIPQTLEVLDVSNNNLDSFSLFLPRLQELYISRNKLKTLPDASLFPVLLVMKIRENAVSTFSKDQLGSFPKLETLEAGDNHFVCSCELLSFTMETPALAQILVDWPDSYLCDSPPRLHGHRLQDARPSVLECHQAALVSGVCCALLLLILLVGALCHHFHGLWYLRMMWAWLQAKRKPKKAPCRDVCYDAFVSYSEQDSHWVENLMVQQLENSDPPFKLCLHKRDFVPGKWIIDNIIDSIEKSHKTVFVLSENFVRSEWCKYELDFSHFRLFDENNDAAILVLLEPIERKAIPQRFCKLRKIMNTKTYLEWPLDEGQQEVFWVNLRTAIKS
procedure-summary: TNF-α release from thioglycolate-elicited mouse peritoneal macrophages (ELISA)
condition-label: read-out: EC50 (nM) (mouse): EC50 TNF-α release from mouse macrophages; Table 3
property-label: EC50 (nM)

smiles-record: CC(C)(C)OCC(=O)OCCCCCCCCCCCCNC(=O)[C@@H]1CN(C(=O)c2ccc(C(=O)N3C[C@@H](C(=O)N[C@H]4C[C@@H]4c4ccccc4)[C@H](C(=O)N[C@H]4C[C@@H]4c4ccccc4)C3)cc2)C[C@H]1C(=O)N[C@H]1C[C@@H]1c1ccccc1
property-label: EC50
reading-unit: nM
value-reported: 5
--
smiles-record: CC(=O)NCC(=O)OCCCCCCCCCCCCNC(=O)[C@@H]1CN(C(=O)c2ccc(C(=O)N3C[C@@H](C(=O)N[C@H]4C[C@@H]4c4ccccc4)[C@H](C(=O)N[C@H]4C[C@@H]4c4ccccc4)C3)cc2)C[C@H]1C(=O)N[C@H]1C[C@@H]1c1ccccc1
property-label: EC50
reading-unit: nM
value-reported: 5
--
smiles-record: O=C(CO)OCCCCCCCCCCCCNC(=O)[C@@H]1CN(C(=O)c2ccc(C(=O)N3C[C@@H](C(=O)N[C@H]4C[C@@H]4c4ccccc4)[C@H](C(=O)N[C@H]4C[C@@H]4c4ccccc4)C3)cc2)C[C@H]1C(=O)N[C@H]1C[C@@H]1c1ccccc1
property-label: EC50
reading-unit: nM
value-reported: 0.7
--
smiles-record: O=C(CNC(=O)OCC1c2ccccc2-c2ccccc21)OCCCCCCCCCCCCNC(=O)[C@@H]1CN(C(=O)c2ccc(C(=O)N3C[C@@H](C(=O)N[C@H]4C[C@@H]4c4ccccc4)[C@H](C(=O)N[C@H]4C[C@@H]4c4ccccc4)C3)cc2)C[C@H]1C(=O)N[C@H]1C[C@@H]1c1ccccc1
property-label: EC50
reading-unit: nM
value-reported: 375
--
smiles-record: O=C(CNC(=O)OCc1ccccc1)OCCCCCCCCCCCCNC(=O)[C@@H]1CN(C(=O)c2ccc(C(=O)N3C[C@@H](C(=O)N[C@H]4C[C@@H]4c4ccccc4)[C@H](C(=O)N[C@H]4C[C@@H]4c4ccccc4)C3)cc2)C[C@H]1C(=O)N[C@H]1C[C@@H]1c1ccccc1
property-label: EC50
reading-unit: nM
value-reported: 40

----------
tested-on: TLR1/TLR2 (Homo sapiens, UniProt O60603+Q15399)
Sequence (Q15399 25-786): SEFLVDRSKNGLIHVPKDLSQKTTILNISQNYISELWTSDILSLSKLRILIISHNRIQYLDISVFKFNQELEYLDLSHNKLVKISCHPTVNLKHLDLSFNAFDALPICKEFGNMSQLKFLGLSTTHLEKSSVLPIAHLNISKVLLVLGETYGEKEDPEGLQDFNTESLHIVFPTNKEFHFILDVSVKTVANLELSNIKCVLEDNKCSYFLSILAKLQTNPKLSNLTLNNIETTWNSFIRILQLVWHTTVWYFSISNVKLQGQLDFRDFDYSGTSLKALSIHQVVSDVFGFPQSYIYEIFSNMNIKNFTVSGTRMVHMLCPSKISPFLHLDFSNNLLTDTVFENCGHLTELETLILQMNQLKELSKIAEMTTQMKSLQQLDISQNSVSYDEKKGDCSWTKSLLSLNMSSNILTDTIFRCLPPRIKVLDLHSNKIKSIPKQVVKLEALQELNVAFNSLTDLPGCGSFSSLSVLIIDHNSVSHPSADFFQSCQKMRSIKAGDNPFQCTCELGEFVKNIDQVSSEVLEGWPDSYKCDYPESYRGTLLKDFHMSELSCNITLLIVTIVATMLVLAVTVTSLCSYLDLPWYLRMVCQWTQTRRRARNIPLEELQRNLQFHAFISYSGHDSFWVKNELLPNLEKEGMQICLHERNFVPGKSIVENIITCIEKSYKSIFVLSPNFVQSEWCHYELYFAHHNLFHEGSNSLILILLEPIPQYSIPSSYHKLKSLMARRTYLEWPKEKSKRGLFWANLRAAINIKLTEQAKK
Sequence (O60603 21-784): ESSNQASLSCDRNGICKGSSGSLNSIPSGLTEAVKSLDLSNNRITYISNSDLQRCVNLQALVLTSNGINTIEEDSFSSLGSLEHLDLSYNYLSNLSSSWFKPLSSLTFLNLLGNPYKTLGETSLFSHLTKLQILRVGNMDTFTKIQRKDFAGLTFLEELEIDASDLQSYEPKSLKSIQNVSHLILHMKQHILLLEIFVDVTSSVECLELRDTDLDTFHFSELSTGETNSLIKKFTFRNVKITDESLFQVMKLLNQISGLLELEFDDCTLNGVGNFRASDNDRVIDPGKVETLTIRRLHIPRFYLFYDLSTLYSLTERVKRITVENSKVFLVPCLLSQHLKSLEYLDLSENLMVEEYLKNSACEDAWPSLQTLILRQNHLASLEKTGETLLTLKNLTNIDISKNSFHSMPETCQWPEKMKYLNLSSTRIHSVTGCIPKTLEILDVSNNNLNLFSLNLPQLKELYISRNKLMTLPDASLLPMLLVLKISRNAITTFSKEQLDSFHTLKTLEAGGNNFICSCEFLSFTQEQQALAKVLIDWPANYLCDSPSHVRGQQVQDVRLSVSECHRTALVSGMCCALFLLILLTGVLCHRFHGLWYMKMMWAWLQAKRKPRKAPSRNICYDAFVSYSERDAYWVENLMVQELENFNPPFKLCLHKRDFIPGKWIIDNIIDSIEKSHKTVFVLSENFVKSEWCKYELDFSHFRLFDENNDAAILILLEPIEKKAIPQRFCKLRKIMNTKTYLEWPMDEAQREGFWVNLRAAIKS
procedure-summary: TNF-α release from PMA-differentiated human THP-1 cells (ELISA);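 further: cells exposed to graded compound concentrations for 4 h, TNF-α quantified in supernatant, LPS as positive and DMSO as negative control, values are duplicate means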
condition-label: read-out: EC50 (nM) (THP-1): EC50 TNF-α release from human THP-1 cells; Table 5
Parameter: EC50. Scope: all listed entries.

smiles-record: CC(C)(C)OC(=O)N[C@@H](CSCc1ccccc1)C(=O)OCCCCCCCCCCCCNC(=O)[C@@H]1CN(C(=O)c2ccc(C(=O)N3C[C@@H](C(=O)N[C@H]4C[C@@H]4c4ccccc4)[C@H](C(=O)N[C@H]4C[C@@H]4c4ccccc4)C3)cc2)C[C@H]1C(=O)N[C@H]1C[C@@H]1c1ccccc1
EC50 / nM: 18

smiles-record: CC(C)[C@H](NC(=O)OC(C)(C)C)C(=O)OCCCCCCCCCCCCNC(=O)[C@@H]1CN(C(=O)c2ccc(C(=O)N3C[C@@H](C(=O)N[C@H]4C[C@@H]4c4ccccc4)[C@H](C(=O)N[C@H]4C[C@@H]4c4ccccc4)C3)cc2)C[C@H]1C(=O)N[C@H]1C[C@@H]1c1ccccc1
EC50 / nM: 1.8

smiles-record: CC(C)(C)OC(=O)NNC(=O)OCCCCCCCCCCCCNC(=O)[C@@H]1CN(C(=O)c2ccc(C(=O)N3C[C@@H](C(=O)N[C@H]4C[C@@H]4c4ccccc4)[C@H](C(=O)N[C@H]4C[C@@H]4c4ccccc4)C3)cc2)C[C@H]1C(=O)N[C@H]1C[C@@H]1c1ccccc1
EC50 / nM: 5

smiles-record: CC(C)(C)OC(=O)N1CCC[C@H]1C(=O)OCCCCCCCCCCCCNC(=O)[C@@H]1CN(C(=O)c2ccc(C(=O)N3C[C@@H](C(=O)N[C@H]4C[C@@H]4c4ccccc4)[C@H](C(=O)N[C@H]4C[C@@H]4c4ccccc4)C3)cc2)C[C@H]1C(=O)N[C@H]1C[C@@H]1c1ccccc1
EC50 / nM: 0.94

smiles-record: CC(C)(C)OC(=O)NC1(C(=O)OCCCCCCCCCCCCNC(=O)[C@@H]2CN(C(=O)c3ccc(C(=O)N4C[C@@H](C(=O)N[C@H]5C[C@@H]5c5ccccc5)[C@H](C(=O)N[C@H]5C[C@@H]5c5ccccc5)C4)cc3)C[C@H]2C(=O)N[C@H]2C[C@@H]2c2ccccc2)CC1
EC50 / nM: 5

smiles-record: CC(C)(C)OC(=O)N[C@@H](Cc1ccccc1)C(=O)OCCCCCCCCCCCCNC(=O)[C@@H]1CN(C(=O)c2ccc(C(=O)N3C[C@@H](C(=O)N[C@H]4C[C@@H]4c4ccccc4)[C@H](C(=O)N[C@H]4C[C@@H]4c4ccccc4)C3)cc2)C[C@H]1C(=O)N[C@H]1C[C@@H]1c1ccccc1
EC50 / nM: 40

smiles-record: CSCC[C@H](NC(=O)OC(C)(C)C)C(=O)OCCCCCCCCCCCCNC(=O)[C@@H]1CN(C(=O)c2ccc(C(=O)N3C[C@@H](C(=O)N[C@H]4C[C@@H]4c4ccccc4)[C@H](C(=O)N[C@H]4C[C@@H]4c4ccccc4)C3)cc2)C[C@H]1C(=O)N[C@H]1C[C@@H]1c1ccccc1
EC50 / nM: 2.8
